The reported numbers originate from PubChem BioAssay (NCI).

System: HCT-116 colon
Test: NCI-60 one-dose screen, 48 h
Settings: 10 µM
About 83,000 compounds went through this panel and 20% of them were active in at least one assay; those are over-represented in the sample as a whole. Active and inactive are the calls of the source. Rule for the calls: active = growth percent below 10; inactive = the rest.
Result category, one only: active, inactive

Worked cases, answers included:
> print(dat)
                                   compound  class.label
1  O=C(Cn1cc(CSc2nnc3oc4ccccc4n23)nn1)Nc1cccc(Cl)c1     inactive
2  CN1C/C(=C\c2ccc(O)cc2O)c2[o+]c3cc(O)ccc3cc2C1     inactive
3  COc1cc(C2CC(c3ccc(C)cc3)=Nc3c(N)nc(N)nc3N2)ccc1Oc1nc(Nc2ccc(F)cc2)nc(N(C)C)n1 (centres undefined)       active

query: Check the results log: what was the call for O=C1N/C(=N\c2nccs2)S/C1=C\c1cccs1 ?
result: inactive

###

System: UO-31 renal
Test: NCI-60 one-dose screen, 48 h (100 = growth as untreated, 0 = no growth, -100 = all killed)
Settings: 10 µM
Compounds without any hit were thinned out: in the full panel of roughly 83,000, 20% have a hit.
VALUE KIND: growth (%)
Numbers only, in %.

Example cases with answers are listed next.
> print(dat)
                                   compound  units.label  numeric.result
1  COc1cc(/C=C/C(=O)c2ccc(NC(=O)CSc3nnc(-c4c[nH]c5ccccc45)n3-c3ccccc3)cc2)cc(OC)c1OC            %              75
2  Cn1cc(/C=N/Nc2ccnc3cc(Cl)ccc23)c2ccccc21            %           -90.1
3  O=C1CCC(N2Cc3cc(CC(=O)Nc4ccc(N5CCCCC5)cc4)ccc3C2=O)C(=O)N1 (centres undefined)            %              21
4  COC(=O)CC1CC1C1Cc2c(nc(N(C)S(C)(=O)=O)nc2C(C)C)-c2ccc(F)cc21 (centres undefined)            %            71.5
5  CSc1nc(-c2cccc(C)c2)c2cc(-c3ccccc3)n(C)c2n1            %            29.8

For every item in the list below, what is its measured growth?
1. COc1ccc2ncc(C#Cc3cncc(C(=O)Nc4ccc(CN5CCN(C)CC5)c(C(F)(F)F)c4)c3)n2n1
2. CCOC(=O)C1NN(c2ccc(S(N)(=O)=O)cc2)c2nc3nc(-c4cccs4)cc(-c4cccs4)c3c(=O)n21 (centres undefined)
3. Cc1ccc(-c2nc3ccc(C(=O)N=Nc4c(O)[nH]c5ccc([N+](=O)[O-])cc45)cc3[nH]2)cc1
4. N#Cc1c(-c2ccc(F)cc2)nc(SCc2ccc([N+](=O)[O-])cc2)nc1N1CCOCC1

result:
[-90.1, 82.9, 81.7, 50.9]

###

System: KM12 colon
Assay: NCI-60 one-dose screen, 48 h (100 = growth as untreated, 0 = no growth, -100 = all killed)
Details: 10 µM
Compounds without any hit were thinned out: in the full panel of roughly 83,000, 20% have a hit.
VALUE KIND: growth (%)
Answers are plain numbers, in %.

Reference set (4 entries):
COMPOUND	TGT	growth, %
Nc1nnc(-c2c[nH]c3ncccc23)c(-c2c[nH]c3ccc(Br)cc23)n1	KM12 colon	39.3
C=C[C@H]1[C@H](O[C@@H]2OC(CO)[C@@H](O)[C@H](O)C2OC(=O)c2c(O)cc(O)cc2-c2cccc(O)c2)OC=C2C(=O)OCC[C@H]21 (stereo not given in full)	KM12 colon	103
CC(C)C1=C[C@@]23CC[C@@H]4[C@](C)(CCC[C@]4(C)C(=O)NCc4ccccc4)[C@H]2C[C@@H]1[C@H]1C(=O)CCC(=O)[C@H]13	KM12 colon	84.6
NS(=O)(=O)c1ccc(NC(=O)CSc2ccc(-c3ccccc3)nn2)c(Br)c1	KM12 colon	85.3

Shifting focus to the compound that follows.
According to the records, this compound O=C(CNc1nc(-c2ccccc2)cs1)Nc1ccc(Cl)cc1 displays growth of -83.8

###

System: ACHN renal
Assay: NCI-60 one-dose screen, 48 h (100 = growth as untreated, 0 = no growth, -100 = all killed)
Settings: 10 µM
Compounds without any hit were thinned out: in the full panel of roughly 83,000, 20% have a hit.
I'd appreciate it if you could supply growth values for the items below.
Answers are plain numbers, in %.

Example compounds with recorded growth:
> print(dat)
                                   compound  numeric.result
1  COc1cc2oc(-c3cccc(C(=O)Nc4ccc(Cl)cc4)c3)cc(=O)c2c(OCCNC(=O)CNC(=O)OC(C)(C)C)c1OC            61.3
2  CCN1CCN(Cc2ccc(C(=O)Nc3cccc(-c4cn(-c5ccc6oc(=O)ccc6c5)nn4)c3)cc2C(F)(F)F)CC1            -100
3  O=C(Nc1ccncc1)c1ccc(-n2c(=O)[nH]c3ccccc3c2=O)cc1            96.2
4  COc1cnc2c(c1)C(=O)c1c-2n(CCCNC(C)C)c(=O)c2cc(OC)c(OC)cc12            3.23
5  Cc1ccc(C(=O)N/C(=C2/OCCN2C)[P+](c2ccccc2)(c2ccccc2)c2ccccc2)cc1             114

For each of the compounds below, state growth.
1. CC(=O)Nc1ccc(-c2cn(-c3cccc(C(=O)Nc4cc(CN5CCOCC5)cc(C(F)(F)F)c4)c3)nn2)cn1
2. O=C(CNc1nc(-c2ccccc2)cs1)Nc1ccc(Cl)cc1
3. O=C(Cn1nc(-c2ccccc2)ccc1=O)NNC(=S)NC1CCCCC1
4. COc1ccc(/C=N/N=C(\C)c2ccc3c(c2)Nc2ccccc2S3)cc1O
5. Cc1cc(C)nc(NS(=O)(=O)c2ccc(N/C(N)=N/c3nccc(-c4ccccc4)n3)cc2)n1
6. N[C@@H](CSSC[C@H](N)C(=O)Nc1ccc(OCC2CCCC2)cc1)C(=O)Nc1ccc(OCC2CCCC2)cc1
7. CCOC(=O)C1=C(N)N(c2ccc(C)cc2)C2=C(C(=O)CC(C)(C)C2)C1c1ccccc1OC (centres undefined)
8. Cc1ccc(C(=O)CSc2nnc(-c3c[nH]c4ccccc34)n2-c2ccccc2)cc1

result:
[-100, -100, 102, 43.3, 61.7, -100, 103, 20.4]

Could I get growth for every one of these entries?
1. O=C(Cn1cc(CSc2nnc3oc4ccccc4n23)nn1)Nc1cccc(Cl)c1
2. O=C(CNc1nc(-c2ccccc2)cs1)Nc1ccc(Cl)cc1[N+](=O)[O-]
3. COC[C@@H](CC(C)C)N=C1NC(=O)/C(=C/c2ccc3ncoc3c2)N1
4. CCOC(=O)CNC(=O)CN(Cc1ccccc1)C(=O)[C@@]1(C)CCC[C@]2(C)[C@H]3CC4C(C(C)C)=C[C@]3(CC[C@H]21)[C@@H]1C(=O)CCC(=O)[C@H]41
5. CC(C)c1ccc(C(=O)Nc2sc3c(c2C(N)=O)CCC(=O)C3=O)cc1
6. CC(=C(c1ccc(OCCCN(C)C)cc1)c1ccc(OCCCN(C)C)cc1)c1ccccc1

result:
66.7
-60.6
7.63
52.9
93.6
-99.2

Hey, quick one: what's growth for each of these?
1. O=C(c1ccc([N+](=O)[O-])c([N+](=O)[O-])c1O)n1[nH]c(=O)c2ccccc2c1=O
2. CCOC(=O)C1=C(N)N(c2ccccc2)C2=C(C(=O)CC(C)(C)C2)C1c1ccccc1OC (centres undefined)

result:
[76.6, 103]

I have 7 compounds here; please give me growth for each one.
1. COc1cc(C2CC(c3ccc(C)cc3)=Nc3c(N)nc(N)nc3N2)ccc1Oc1nc(Nc2ccc(F)cc2)nc(N(C)C)n1 (centres undefined)
2. O=C(Nc1nc2ccc([N+](=O)[O-])cc2s1)Nc1cc(Cl)ccc1I
3. O=c1oc2ccc(-c3ccc(F)cc3F)cc2c(=O)n1-c1ccc(Cl)c(C(F)(F)F)c1
4. CCCn1c(=O)c2[nH]c(-c3ccc(OCc4nc5ccc(C(F)(F)F)cc5[nH]4)cc3)nc2n(CCC)c1=O
5. CN1CCN(c2ccc(Nc3nc(NCCCNC(=O)c4ccc(Cl)cc4)c4sccc4n3)cc2)CC1
6. CCOC(=O)C1NN(c2ccc(S(N)(=O)=O)cc2)c2nc3nc(-c4cccs4)cc(-c4cccs4)c3c(=O)n21 (centres undefined)
7. O/N=C(\CSc1nnc(-c2c[nH]c3ccccc23)n1-c1ccccc1)c1ccc(Cl)cc1

result:
[47.1, -3.53, -10.9, 64.7, 73.1, 64.9, 3.34]

The recorded growth for N#Cc1c(NC(=O)c2ccc(C(O)(C(F)(F)F)C(F)(F)F)cc2)sc2c1CCC(=O)C2 is -98.3

###

Tested on: OVCAR-5 ovarian
Experiment: NCI-60 one-dose screen, 48 h
Conditions: 10 µM
Compounds without any hit were thinned out: in the full panel of roughly 83,000, 20% have a hit. Active and inactive are the calls of the source. The calls were made as follows: active = growth percent below 10; inactive = the rest.
Your answer must be one of the following: active, inactive

COMPOUND	TGT	CLASS LABEL
Cc1ccc(C(=O)NCCCNc2nc(Nc3ccc(N4CCN(C)CC4)cc3)nc3ccsc23)cc1	OVCAR-5 ovarian	inactive
CC1=C2C(=C[C@@](C)(CO)[C@@H]2O)/C(=N\N)[C@](C)(O)C12CC2	OVCAR-5 ovarian	active
O=C(c1ccc(-n2c(=O)[nH]c3ccccc3c2=O)cc1)N1CCOCC1	OVCAR-5 ovarian	inactive

query: Status in this test for O=C1Nc2ccc(Cl)cc2/C1=C/c1cccc(OCc2ccccn2)c1 ?
result: active

query: // return assay outcome for COc1cnc2c(c1)C(=O)c1c-2n(CCCNCCO)c(=O)c2cc(OC)c(OC)cc12
result: inactive

query: What did this assay record as the result for Cc1ccc(/C=C/C(=O)c2ccc(NC(=O)CSc3nnc(-c4c[nH]c5ccccc45)n3-c3ccccc3)cc2)c(C)c1 ?
result: inactive

query: Per the records of this test, what outcome belongs to COc1ccccc1[C@H]1C(C(=O)c2ccc(Cl)cc2)C2(N[C@@H]1c1ccccc1)C(=O)Nc1ccccc12 (stereo not given in full) ?
result: active

query: Check the results log: what was the call for O=c1cc(-c2ccccc2)oc2cc(OCCCCNCc3ccccc3)cc(O)c12 ?
result: inactive

query: Query: recorded result category for O=C1CCC(N2Cc3c(C#CCCCNC(=O)c4ccc(NC(=O)[C@@H]5NC6(CCCCC6)[C@@]6(C(=O)Nc7cc(Cl)ccc76)[C@H]5c5cccc(Cl)c5F)cc4)cccc3C2=O)C(=O)N1 (stereo not given in full) in this test
result: inactive
